Reference source: ChEMBL document CHEMBL1961873

# Assay target: Protein-tyrosine kinase 6 (Homo sapiens)
# Measurement parameters: at 1 µM
# Description: GSK_PKIS: BRK mean inhibition at 1 uM [Nanosyn]
As shown below, each of these compounds has a reported inhibition value.
Result type: inhibition (%)

1. NS(=O)(=O)c1ccc(N/N=C2\C(=O)Nc3ccc(C(=O)NCc4ccncc4)cc32)cc1 : 4.41
2. CCS(=O)(=O)c1ccc(OC)c(Nc2ncc(-c3cccc(C(C)=O)c3)o2)c1 : 18.7
3. OCCCNc1nccc(-c2c(-c3ccc(F)cc3)nn3cc(C(F)(F)F)ccc23)n1 : 5.03
4. CCCNc1cccc(-n2ncc3c(N/N=C/c4ccncc4)ncnc32)c1 : 51
5. CS(=O)(=O)CCNCc1ccc(-c2ccc3ncnc(Nc4ccc(OCc5cccc(C(F)(F)F)c5)cc4)c3c2)o1 : 3.19
6. COc1ccccc1-c1cc(/C=C2\C(=O)Nc3ncc(Br)cc32)cc(Br)c1O : 3.92
7. CC1(C)CC(n2cnc(-c3ccc(F)cc3)c2-c2ccnc(N)n2)CC(C)(C)N1 : 1.66
8. COc1ccc(-c2nn3ncccc3c2-c2ccnc(Nc3ccc(F)c(F)c3)n2)cc1 : 46.2
9. N#Cc1ccc2c(-c3ccnc(NC4CC4)n3)c(-c3ccc(F)cc3)nn2c1 : 2.88
10. c1ccc(-c2n[nH]cc2-c2ccnc(-c3ccc(OCCn4ccnc4)cc3)c2)nc1 : 8.22
11. COc1cc(N2CCN(C(C)C)CC2)ccc1Nc1nc(Nc2cccc3ncccc23)c2cc[nH]c2n1 : -2.93
12. CCOc1ccc2c(-c3ccnc(Nc4cc(OC)cc(C(F)(F)F)c4)n3)cnn2n1 : 2.17
13. Cn1c(-c2nonc2N)nc2cnccc21 : 4.24
14. CNC(=O)c1ncccc1Nc1nc(Nc2cc3c(cc2OC)CCCN3C(=O)CN(C)C)nc2[nH]ccc12 : 6.37
15. COc1ccc(Nc2ncc(-c3ccccc3)o2)cc1OC : 2.71
16. c1cnn2ncc(-c3ccnc(NCCCN4CCOCC4)n3)c2c1 : 3.25
17. CN(C)CCNC(=O)Nc1ccc(N(C)c2ccnc(Nc3ccc(CS(C)(=O)=O)cc3)n2)cc1 : 5.13
18. COc1cccc(Nc2nccc(-c3cnn4ncccc34)n2)c1 : 10.1
19. CS(=O)(=O)CCNCc1ccc(-c2ccc3ncnc(Nc4ccc(OCc5ccccc5)cc4)c3c2)o1 : 13.7
20. Cc1ccc(-c2cc3c(NC(=O)C4CC4)ncnc3o2)cc1 : 8.16
21. Cc1c2ccc(N(C)c3ccnc(Nc4cccc(S(N)(=O)=O)c4)n3)cc2nn1C : 51.2
22. O=C(O[C@H]1CN[C@H](C#Cc2cc3ncnc(Nc4ccc5c(cnn5Cc5ccccc5)c4)c3s2)C1)N1CCOCC1 : 2.7
23. Fc1ccc(Nc2nccc(-c3c(-c4ccc(C(F)(F)F)cc4)nn4ncccc34)n2)cc1F : 0.92
24. FC(F)(F)CNc1nccc(-c2cnn3ncccc23)n1 : 3.34
25. O=C1Nc2ccccc2/C1=C1\CCc2cc(O)ccc21 : 4.05
26. CCS(=O)(=O)c1ccc(OC)c(Nc2ncc(-c3cccc(F)c3)o2)c1 : 29.8
27. O=C(O[C@H]1CN[C@H](C#Cc2cc3ncnc(Nc4ccc5c(ccn5Cc5cc(F)ccc5F)c4)c3s2)C1)N1CCOCC1 : 4.9
28. N#Cc1cccc(Nc2ncc(-c3ccccc3)o2)c1 : 3.45
29. CS(=O)(=O)Nc1ccc(-c2ccc3c(NC(=O)C4CC4)n[nH]c3c2)cc1 : 2.53
